Protocol Description: NCI Yeast Anticancer Drug Screen. Data for the mlh1 rad18 strain (AID 175)
Condition Info: S. cerevisiae mlh1 rad18 strain growth inhibition; at 50.0 µM; stronger effect = higher value
This is part of a sample that, as a whole, favours compounds with a hit. Of some 79,000 tested, about 15% had one in any assay.
// growth inhibition lookup, one value per entry
Report the value in % with no unit label.

Task: Entry `CCCCc1noc(N)c1SCC` has what growth inhibition?
Output: 3.7

Task: Entry CC1(C)C(CC(=O)O)CCCC1CC(=O)O (centres undefined) has what growth inhibition?
Output: 49.2

Task: Entry `Nc1cc2c(cc1Br)-c1cc(Cl)c(Cl)cc1C2=O` has what growth inhibition?
Output: -11.5

Next item in the queue.
Task: Entry CSc1nc2c(nc(N)n2C2OC(CO)C(O)C(O)C2O)c(=O)n1C (centres undefined) has what growth inhibition?
Output: 39.4
